System: Plasmodium berghei
measurementNotes: Luciferase/luciferin-expressing antifolate-resistant parasites were used to infect a culture of HepG2 cells that were pre-incubated with compounds. Infected hepatocytes emit light due to the luciferase reaction. Assay results are presented as the percent inhibition of light emission compared to control. […]
Type: functional
conditionsUsed: sporozoite, read-out: LUCIFERASE INFECTION ASSAY - IC90
Recorded IC90 values for a group of molecules are listed next.

Ask | Find IC90 (Plasmodium berghei) for the entry NC(=O)NC(CC(=O)OCC(=O)Nc1ccccc1-c1ccccc1)c1ccc(Cl)cc1 (stereo unspecified)
Reply | > 10 µM

---
Ask | Find IC90 (Plasmodium berghei) for the entry c1cncc(CCNc2nccn3c(-c4ccc5ccccc5c4)cnc23)c1
Reply | 5.14 µM

Ask | Find IC90 (Plasmodium berghei) for the entry O=C(Nc1ccc(Oc2ccc(C(F)(F)F)cn2)c(Cl)c1)C1CC1
Reply | 4.36 µM

Ask | Find IC90 (Plasmodium berghei) for the entry Cc1[nH]nc2ccnc(-c3cccc(OC(F)(F)F)c3)c12
Reply | > 10 µM

Ask | Find IC90 (Plasmodium berghei) for the entry CCCCNC(=O)c1c(NC(=O)c2cccc(Cl)c2Cl)nc2ccc(C)cn12
Reply | 1.27 µM

Ask | Find IC90 (Plasmodium berghei) for the entry O=C(CSc1nnc(-c2ccc(Cl)cc2Cl)n1-c1ccc(F)c(Cl)c1)NCCC1=CCCCC1
Reply | > 10 µM

Ask | Find IC90 (Plasmodium berghei) for the entry CNC(=O)N(C1=NCC(C)(C)S1)c1cccc(C(F)(F)F)c1
Reply | > 9.96 µM

Ask | Find IC90 (Plasmodium berghei) for the entry Cc1cccc(Nc2ccccc2C(=O)OCC(=O)Nc2cccc(C#N)c2)c1C
Reply | > 10 µM
